B1: Lysozyme C, P61626 (parent)
chain: MKALIVLGLVLLSVTVQGKVFERCELARTLKRLGMDGYRGISLANWMCLAKWESGYNTRATNYNAGDRSTDYGIFQINSRYWCNDGKTPGAVNACHLSCSALLQDNIADAVACAKRVVRDPQGIRAWVAWRNRCQNRDVRQYVQGCGV

Variants of: B1
TEST_SETTINGS: Homo sapiens; pH 2.5; Thermal; DSC; glycine-HCl 0.05 M; reversible: yes; structure 1LZ1; whole UniProt chain shown
TEST_READOUT: unfolding enthalpy (calorimetric) (kcal/mol)
Give just the number in kcal/mol; leave the unit off.

Some variants with recorded unfolding enthalpy (calorimetric):
INSERT INTO results (entry_sequence, test_readout, reported) VALUES
  ('MKALIVLGLVLLSVTVQGKVFERCELARTLKRLGMDGYRGISLANWMCLAKWESGYNVRATNYNAGDRSTDYGIFQINSRYWCNDGKTPGAVNACHLSCSALLQDNIADAVACAKRVVRDPQGIRAWVAWRNRCQNRDVRQYVQGCGV', 'unfolding enthalpy (calorimetric)', 96.6),
  ('MKALIVLGLVLLSVTVQGKVFERCELARTLKRLGMDGYRGISLANWMCLAKWESGYNTRATNYNAGDRSTDYGIFQINSRYWCNDGKVPGAVNACHLSCSALLQDNIADAVACAKRVVRDPQGIRAWVAWRNRCQNRDVRQYVQGCGV', 'unfolding enthalpy (calorimetric)', 102),
  ('MKALIVLGLVLLSVTVQGKVFERCELARTLKRLGMDGYRGISLANWMCLAKWESGYNTRATNYNAGDRSVDYGIFQINSRYWCNDGKTPGAVNACHLSCSALLQDNIADAVACAKRVVRDPQGIRAWVAWRNRCQNRDVRQYVQGCGV', 'unfolding enthalpy (calorimetric)', 98.7);

Requested read-out: unfolding enthalpy (calorimetric). Entry: MKALIVLGLVLLSVTVQGKVFERCELARTLKRLGMDGYRGISLANWMCLAKWESGYNTRATNYNAGDRSTDYGIFQINSRYWCNDGKAPGAVNACHLSCSALLQDNIADAVACAKRVVRDPQGIRAWVAWRNRCQNRDVRQYVQGCGV
98.5

Requested read-out: unfolding enthalpy (calorimetric). Entry: MKALIVLGLVLLSVTVQGKVFERCELARTLKRLGMDGYRGISLANWMCLAKWESGYNARATNYNAGDRSTDYGIFQINSRYWCNDGKTPGAVNACHLSCSALLQDNIADAVACAKRVVRDPQGIRAWVAWRNRCQNRDVRQYVQGCGV
97.5

Data provenance: FireProtDB (doi:10.1021/bi9910169)
